- measurementDescription: cytotoxicity in HPDE-C7 cells, cell-based, fluorescence, HTS (AID 430);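 also: cells exposed to compound for 48 hours before viability readout; 0% = vehicle and 100% = reference cytotoxic drug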
- recordedConditions: HPDE-C7 pancreatic duct cells viability, at 10 µM
Hit rate of the full screen: of about 63,000 compounds, about 1,100 (1.7%) were called active. Rule as the data show it: active = cytotoxicity above about 50%; inactive = the rest. The entries come from a sample that favours actives as a whole. Results with a measured potency or affinity are listed apart.
Result category, one only: Y (active), N (inactive)

Request: Can you look up the reported call for Fc1ccc(C2=Nn3c(nnc3-c3n[nH]c4c3CCC4)SC2)cc1 for me?
Result: N

Request: Can you look up the reported call for Clc1ccc(C2=Nn3c(nnc3-c3n[nH]c4c3CCC4)SC2)cc1 for me?
Result: N

Request: Can you look up the reported call for N#Cc1nc(Cc2cccc3ccccc23)oc1NCc1ccco1 for me?
Result: Y

Request: Can you look up the reported call for COC(=O)c1cc(OC)c(OC)cc1N=CC1=C(O)CC(C)(C)CC1=O for me?
Result: N

Request: Can you look up the reported call for Brc1ccc(C2=Nn3c(nnc3-c3n[nH]c4c3CCC4)SC2)cc1 for me?
Result: Y

Request: Can you look up the reported call for COc1cc(NCCCC(C)N)c2ncccc2c1 (stereo unspecified) for me?
Result: N

====

- measurementDescription: cytotoxicity in HPDE-C7 cells, cell-based, fluorescence, HTS (AID 430)
- recordedConditions: HPDE-C7 pancreatic duct cells viability, at 10 µM, active compounds read high
Hit rate of the full screen: of about 63,000 compounds, about 1,100 (1.7%) were called active. What follows is part of a selection rich in actives, with near analogues and random picks from the rest. Potency and affinity values are given separately.
Classify: 1 (yes) when cytotoxicity is strictly less than 40%; 0 (no) when cytotoxicity is not.

COc1ccc(CN2CCC(=O)NC2=O)cc1	1 (yes)
CCN(CC)c1ccc(C2Nc3cccc4cccc(c34)N2)c(O)c1	1 (yes)
COc1cc(C2Nc3cccc4cccc(c34)N2)cc(OC)c1O	0 (no)

Read the next record carefully.
Request: Bench note: check whether COc1cc(C2Nc3cccc4cccc(c34)N2)cc(OC)c1OC(C)=O shows cytotoxicity below 40%
Result: 0 (no)

====

- measurementDescription: cytotoxicity in HPDE-C7 cells, cell-based, fluorescence, HTS (AID 430)
- recordedConditions: HPDE-C7 pancreatic duct cells viability, at 10 µM, active compounds read high
Out of some 63,000 compounds screened, about 1,100 (1.7%) were called active. This is one part of a sample in which actives are shown more often than they occur. Entries with a potency or affinity are not part of this list.
cytotoxicity values for the molecules below.
Number in %, nothing else.

Below: 3 molecules and their reported cytotoxicity.
O=C(O)C1C2C=CC3(CN(Cc4ccco4)C(=O)C13)O2 (stereo unspecified)	-6.3
COCc1cc(=O)[nH]c(Nc2nc3ccccc3o2)n1	34.6
CCOC(=O)Cc1csc(NC(=O)CSc2ncnc3c2cnn3-c2ccc(OC)cc2)n1	-6.9

Request: Quick check: cytotoxicity of O=C(Nc1nnc(-c2ccccc2Cl)o1)c1ccco1 ?
Result: 6.6

Request: Quick check: cytotoxicity of Cc1ccnc(Sc2nc3c(c(=O)[nH]c(=O)n3C)n2CCCc2ccccc2)n1 ?
Result: -9.5

Request: Quick check: cytotoxicity of COC(=O)Cc1cc(=O)[nH]c(Nc2nc3ccccc3o2)n1 ?
Result: 7.2

Request: Quick check: cytotoxicity of COc1cccc2sc(Nc3nc(-c4ccccn4)cs3)nc12 ?
Result: 65.7

Request: Quick check: cytotoxicity of C=CCn1c(SCC(=O)O)nnc1-c1cccc(Cl)c1 ?
Result: 5.9

Request: Quick check: cytotoxicity of c1ccc(-c2csc(Nc3cccnc3)n2)nc1 ?
Result: 3.7

Request: Quick check: cytotoxicity of Cc1ccc(S(=O)(=O)NCC(C)NS(=O)(=O)c2ccc(C)cc2)cc1 (stereo unspecified) ?
Result: -44.3

Request: Quick check: cytotoxicity of O=C(O)C1C2C=CC3(CN(Cc4ccccn4)C(=O)C13)O2 (stereo unspecified) ?
Result: 63.6

====

- measurementDescription: cytotoxicity in HPDE-C7 cells, cell-based, fluorescence, HTS (AID 430)
- recordedConditions: HPDE-C7 pancreatic duct cells viability, at 10 µM
The whole screen tested about 63,000 compounds, of which about 1,100 (1.7%) were called active. Rule as the data show it: active = cytotoxicity above about 50%; inactive = the rest. The list comes from a sample in which actives are over-represented; it also holds close analogues and randomly drawn compounds. Results with a measured potency or affinity are listed apart.
Result category, one only: active, inactive

COc1ccc(C(=O)c2sc(NC(C)C)nc2N)cc1OC	inactive

Read the next record carefully.
Request: Can you look up the reported call for CCNS(=O)(=O)c1ccc(NC(=O)c2ccccc2OCC)cc1 for me?
Result: inactive

====

- measurementDescription: cytotoxicity in HPDE-C7 cells, cell-based, fluorescence, HTS (AID 430);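 also: cells exposed to compound for 48 hours before viability readout; 0% = vehicle and 100% = reference cytotoxic drug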
- recordedConditions: HPDE-C7 pancreatic duct cells viability, at 10 µM, active compounds read high
Screen size: about 63,000 compounds; about 1,100 (1.7%) were called active. This is one part of a sample in which actives are shown more often than they occur. Entries with a potency or affinity are not part of this list.
propertyName: cytotoxicity (%)
Number in %, nothing else.

CCN1CCN(c2nc(-c3cccnc3)nc3ccccc23)CC1	-27.8
COc1ccc(-c2nc(CN3CCC(C(=O)NC(C)C)CC3)c(C)o2)cc1OC	-10.9
Cc1nc2cc(C(F)(F)F)ccc2n1C1CCN(CC(=O)N2CCOCC2)CC1	1.2
O=C(NCCCN1CCN(CCCNC(=O)c2ccc(F)cc2)CC1)c1ccc(F)cc1	-6.2

Request: Quick check: cytotoxicity of c1ccc(Cn2nnnc2CN2CCN(Cc3ccc4c(c3)OCO4)CC2)cc1 ?
Result: -5.8

Request: Quick check: cytotoxicity of COc1ccc(Nc2nc(-c3sc(N)nc3C)cs2)cc1 ?
Result: 46.6

====

- measurementDescription: cytotoxicity in HPDE-C7 cells, cell-based, fluorescence, HTS (AID 430);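 also: cells exposed to compound for 48 hours before viability readout; 0% = vehicle and 100% = reference cytotoxic drug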
- recordedConditions: HPDE-C7 pancreatic duct cells viability, at 10 µM, active compounds read high
In all, about 63,000 compounds went through this assay and about 1,100 (1.7%) were called active. What follows is part of a selection rich in actives, with near analogues and random picks from the rest. Measured potencies and affinities stand elsewhere.
propertyName: cytotoxicity (%)
Number in %, nothing else.

Below: 5 compounds and their reported cytotoxicity.
COc1ccc(CCNC(=O)c2cc3ccccn3n2)c(OC)c1OC	-7
COC(=O)c1cccc(S(=O)(=O)N2CCN(c3nc4ccccc4s3)CC2)c1	-5.4
CC(C)(C)c1cc(C(=S)N2CCN(CCO)CC2)cc(C(C)(C)C)c1O	-4.1
CCOc1cc(S(=O)(=O)n2c(C)nc3ccccc32)ccc1F	2.2
O=C(C1Cc2ccccc2O1)N1CCCCC1 (stereo unspecified)	-12.6

Request: Quick check: cytotoxicity of Cc1cc(NCCCN2CCOCC2)n2ncc(-c3ccc(Cl)cc3)c2n1 ?
Result: 11.9

Request: Quick check: cytotoxicity of CC(=O)OC[C@H]1O[C@@H](n2ccc(=O)[nH]c2=S)C(OC(C)=O)C1OC(C)=O (stereo partly specified) ?
Result: -1

Request: Quick check: cytotoxicity of Cc1cc(NCCOCCO)n2ncc(-c3ccc(Cl)cc3)c2n1 ?
Result: 65.6

Request: Quick check: cytotoxicity of CC(C)(C)c1cc(CN2CCN(CCO)CC2)cc(C(C)(C)C)c1O ?
Result: -9.7

Request: Quick check: cytotoxicity of CC(=O)OC[C@H]1O[C@@H](n2ncc(=O)[nH]c2=O)[C@H](OC(C)=O)[C@@H]1OC(C)=O ?
Result: 56.2

Request: Quick check: cytotoxicity of COc1cc(NC(=O)Cc2nn(C)c(=O)c3ccccc23)cc(OC)c1 ?
Result: 19.8

====

- measurementDescription: cytotoxicity in HPDE-C7 cells, cell-based, fluorescence, HTS (AID 430);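 also: cells exposed to compound for 48 hours before viability readout; 0% = vehicle and 100% = reference cytotoxic drug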
- recordedConditions: HPDE-C7 pancreatic duct cells viability, at 10 µM
The whole screen tested about 63,000 compounds, of which about 1,100 (1.7%) were called active. Cut-off read from the data, not from the text of the source: active = cytotoxicity above about 50%; inactive = the rest. The full list was thinned out, with actives kept by preference. Entries with a potency or affinity are not part of this list.
Result category, one only: active, inactive

Known results for compounds:
CCCCCCn1c(SCC(=O)OC)nc2c1c(=O)[nH]c(=O)n2C	inactive
COCCOC(=O)C(C#N)c1nc2ccccc2nc1N1CCN(Cc2ccccc2)CC1 (stereo unspecified)	inactive
CCOC(=O)CN1C(=O)C(O)=C(C(C)=O)C1c1ccccc1 (stereo unspecified)	inactive
CCCCCCNS(=O)(=O)c1ccc(Cl)s1	inactive
CCCCCCOC(=O)C(C#N)c1nc2ccccc2nc1N1CCN(CC)CC1 (stereo unspecified)	inactive
CCN1CCN(c2nc3ccccc3nc2C(C#N)C(=O)OCc2ccccc2)CC1 (stereo unspecified)	active
COc1ccc(CNC(=O)C(C#N)c2nc3ccccc3nc2N2CCCC2)cc1 (stereo unspecified)	inactive
CC(C)COC(=O)C(C#N)c1nc2ccccc2nc1N1CCN(Cc2ccccc2)CC1 (stereo unspecified)	inactive
CCCCCCOC(=O)C(C#N)c1nc2ccccc2nc1N1CCN(C)CC1 (stereo unspecified)	active
N#CC(C(=O)NCc1ccccc1)c1nc2ccccc2nc1N1CCCC1 (stereo unspecified)	inactive

Read the next record carefully.
Request: Can you look up the reported call for CCCCCCOC(=O)C(C#N)c1nc2ccccc2nc1N1CCCCC1 (stereo unspecified) for me?
Result: inactive
